Assay: PAMPA BBB (parallel artificial membrane permeability assay)
Format: in vitro ADME
Settings: pH 7.4, 37 °C, donor 20 µg/mL, read-out: Permeability Coefficients (Pe × 10−6) ± SD
TEST_READOUT: Papp at 180 min, 20 µg/mL

Some solved cases for reference:
compound Cc1ccc(-n2c(-c3cccc(Cl)c3)n[nH]c2=S)cc1 [TP-10] , Papp at 180 min, 20 µg/mL observed: 40.2 ×10⁻⁶ cm/s

For this compound ( CC(C)Cn1c(Cc2cccc(Cl)c2)n[nH]c1=S [TPR-22] ), measured Papp at 180 min, 20 µg/mL is 34.4 ×10⁻⁶ cm/s

Entry CCCC(CCC)C(=O)O [Valproic acid, reference compound] ; Papp at 180 min, 20 µg/mL = 15.4 ×10⁻⁶ cm/s

// below: Papp at 180 min, 20 µg/mL requested for another compound
For this compound ( CCCCCCn1c(Cc2cccc(Cl)c2)n[nH]c1=S [TP-427] ), measured Papp at 180 min, 20 µg/mL is 477 ×10⁻⁶ cm/s

----------
Assay: Quantification of TP-315 in mouse serum by HPLC-FL
Assay type: in vivo
Settings: male, Albino Swiss, ip, mice, 47.6 mg/kg i.p. for 14 days, 24 h after the last injection, mean ± SD, read-out: Mean measured concentration of TP-315 in the plasma of the mice
TEST_READOUT: concentration at 24 h (ng/mL)
Write down the numeric answer in ng/mL and omit the unit.

Given item `CCCCCCn1c(-c2cccc(Cl)c2)n[nH]c1=S` , the value recorded as its concentration at 24 h is 14.5
